Values compiled from ChEMBL document CHEMBL3112533.

assay: Cytotoxicity against mouse RAS-3T3 cells by crystal violet assay; assay type: functional, cell-based; conditions: NIH3T3
outcomeMeasure: pIC50
# reply with the number alone; pIC50 is -log10 of concentration in mol/L

In [3]: df
Out[3]:
                                   compound  outcomemeasure  numericreadout
0  CCCCCCCC(NC(=O)CNC(=O)OCc1ccccc1)C(=O)NCc1ccc(OC)cc1 (racemic)           pIC50            4.40
1  CCCCCCCC(NC(=O)CNC(=O)OCc1ccccc1)C(=O)NCCc1ccccc1 (racemic)           pIC50            4.70
2  CCCCCCCCCC(C(=O)NCc1ccc(OC)cc1)N(C)C(=O)CNC(=O)OCc1ccccc1 (racemic)           pIC50            4.52
3  CCCCCCCCCC(NC(=O)[C@H](CC(C)C)NC(=O)OCc1ccccc1)C(=O)NCc1ccc(OC)cc1 (mixture of isomers)           pIC50            4.30
4  CCCCCCCC(NC(=O)CNC(=O)OCc1ccccc1)C(=O)NCc1ccccc1 (racemic)           pIC50            4.48
5  CCCCCCCCCC(NC(=O)[C@H](C)NC(=O)OCc1ccccc1)C(=O)NCc1ccc(OC)cc1 (mixture of isomers)           pIC50            4.26

Inquiry: Find the measured pIC50 of CCCCCCCCCC(NC(=O)CNC(=O)OCc1ccccc1)C(=O)NCc1ccc(OC)cc1 (racemic) and report it.
Reply text: 4.72

* * *

assay: Cytotoxicity against mouse RAS-3T3 cells by crystal violet assay; assay type: functional, cell-based; conditions: NIH3T3
outcomeMeasure: IC50

Guide cases for IC50, answers given:
In [3]: df
Out[3]:
                                   compound  outcomemeasure  result
0  CCCCCCCC(NC(=O)CNC(=O)OCc1ccccc1)C(=O)NCc1ccc(OC)cc1OC (racemic)            IC50   40 µM
1  CCCCCCCCCC(NC(=O)[C@H](Cc1ccccc1)NC(=O)OCc1ccccc1)C(=O)NCc1ccc(OC)cc1 (mixture of isomers)            IC50   68 µM

Inquiry: Find the measured IC50 of COc1ccc(CNC(=O)C(Cc2ccc(OC)cc2)NC(=O)CNC(=O)OCc2ccccc2)cc1 (racemic) and report it.
Reply text: > 100 µM

Inquiry: Find the measured IC50 of CCCCCCCC(NC(=O)CNC(=O)OCc1ccccc1)C(=O)NC1CCCCC1 (racemic) and report it.
Reply text: 30 µM

* * *

test: Cytotoxicity against mouse RAS-3T3 cells by crystal violet assay; format: functional, cell-based; settings: NIH3T3
outcomeMeasure: IC50

Guide cases for IC50, answers given:
>>> df
                                   compound    result
0  COc1ccc(CNC(=O)C(CCCCCNC(=O)OC(C)(C)C)NC(=O)CNC(=O)OCc2ccccc2)cc1 (racemic)  > 100 µM
1  COc1ccc(CNC(=O)C(NC(=O)CNC(=O)OCc2ccccc2)C2CCCCC2)cc1 (racemic)     40 µM

// moving on: another record for IC50
Inquiry: Find the measured IC50 of COc1ccc(CNC(=O)C(CC(C)C)NC(=O)CNC(=O)OCc2ccccc2)cc1 (racemic) and report it.
Reply text: > 100 µM
